Reference source for all entries: paper PMC9525761

Test system: BEAS-2B cells
Assay: MTT cytotoxicity assay, BEAS-2B cells
Format: cell-based, human
Conditions: 24 h, table prints none, read-out: average IC50, BEAS-2B cells (mean ± SD)
Each entry below carries its recorded IC50.
Express your answer in µM, writing the number without its unit.

N.N.[Cl][Pt][Cl] [Cisplatin]; 69.2

Quick one: IC50 of O=[N+]([O-])[O-].[Ag+] [AgNO3, silver nitrate] ?
16

* * *

Test system: A549 cells
Experiment: MTT cytotoxicity assay, A549 cells (with selectivity index)
Assay type: cell-based, human
Conditions: MTT, 72 h, table prints none; read-out: average IC50, A549 cells (mean ± SD)
parameter measured: IC50 (µM)
Express your answer in µM, writing the number without its unit.

Observed IC50 on A549 cells for N.N.[Cl][Pt][Cl] [Cisplatin] , please.
17.5
